- Tested on: ATP;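 further: ATP exposure 15 min at 22 °C before imaging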
- method description: switch fluorescence ratio, 500 uM ATP over buffer (Cy3 cluster intensity, sum of 5 cycles each) (fold (ratio)); higher = stronger signal-on switching upon ATP binding; sequences stand for … in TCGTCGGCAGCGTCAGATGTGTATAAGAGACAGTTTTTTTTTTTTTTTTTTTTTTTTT…TC
- test context: aptamer strand: ATP DNA aptamer (quencher-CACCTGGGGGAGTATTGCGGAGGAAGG + anchor), 100 nM annealed; ATP concentration: 500 uM
Label rule, in plain words: switch fluorescence ratio of 1 and up is true (1), under 1 is false (0).

construct sequence | assigned label
GGGCATGCAG | false (0)
TCGTTTGGGG | true (1)
TACTTTAGGT | true (1)
TGGGTGGGAC | true (1)
CAGAAGGATA | true (1)
AAATAGGGTG | true (1)
TTTTTTTTTC | true (1)
GGAGGGGGAT | true (1)

Query block: Is it the case that AGGTAAGAGG has switch fluorescence ratio reaching or exceeding 1?
Result block: false (0)

Query block: Entry GCCGTCTGCG : is its switch fluorescence ratio no less than 1?
Result block: false (0)
